Target: α4β7 integrin interaction with MadCAM-1 (RPMI8866 cells) (Homo sapiens, UniProt P13612+P26010)
Construct: α4β7 integrin expressing cells; endogenous in cells
Sequence (P13612 34-1032): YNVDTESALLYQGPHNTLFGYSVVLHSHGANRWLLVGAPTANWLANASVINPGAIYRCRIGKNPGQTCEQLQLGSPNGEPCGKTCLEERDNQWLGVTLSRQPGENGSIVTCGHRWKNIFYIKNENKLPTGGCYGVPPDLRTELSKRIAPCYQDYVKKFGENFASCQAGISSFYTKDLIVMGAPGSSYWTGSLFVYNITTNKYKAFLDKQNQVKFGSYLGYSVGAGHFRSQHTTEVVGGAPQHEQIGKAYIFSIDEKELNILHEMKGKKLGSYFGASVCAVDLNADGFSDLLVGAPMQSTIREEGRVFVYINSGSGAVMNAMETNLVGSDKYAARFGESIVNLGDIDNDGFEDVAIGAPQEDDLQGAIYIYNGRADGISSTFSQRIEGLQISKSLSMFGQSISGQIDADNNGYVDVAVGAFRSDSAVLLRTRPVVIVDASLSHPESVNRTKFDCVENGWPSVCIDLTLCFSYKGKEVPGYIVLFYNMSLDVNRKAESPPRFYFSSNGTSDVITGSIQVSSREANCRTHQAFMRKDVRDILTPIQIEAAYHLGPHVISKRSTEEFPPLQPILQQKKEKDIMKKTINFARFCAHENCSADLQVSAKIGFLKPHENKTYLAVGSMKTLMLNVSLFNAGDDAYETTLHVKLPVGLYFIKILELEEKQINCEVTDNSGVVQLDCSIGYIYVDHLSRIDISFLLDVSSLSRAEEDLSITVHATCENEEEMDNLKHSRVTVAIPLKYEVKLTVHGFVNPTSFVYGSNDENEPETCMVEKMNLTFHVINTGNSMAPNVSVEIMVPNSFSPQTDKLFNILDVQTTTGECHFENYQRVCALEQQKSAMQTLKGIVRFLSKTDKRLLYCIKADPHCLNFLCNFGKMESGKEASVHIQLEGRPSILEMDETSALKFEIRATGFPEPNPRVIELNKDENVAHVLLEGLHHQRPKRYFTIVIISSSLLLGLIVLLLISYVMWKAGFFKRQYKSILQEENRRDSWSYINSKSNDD
Sequence (P26010 20-798): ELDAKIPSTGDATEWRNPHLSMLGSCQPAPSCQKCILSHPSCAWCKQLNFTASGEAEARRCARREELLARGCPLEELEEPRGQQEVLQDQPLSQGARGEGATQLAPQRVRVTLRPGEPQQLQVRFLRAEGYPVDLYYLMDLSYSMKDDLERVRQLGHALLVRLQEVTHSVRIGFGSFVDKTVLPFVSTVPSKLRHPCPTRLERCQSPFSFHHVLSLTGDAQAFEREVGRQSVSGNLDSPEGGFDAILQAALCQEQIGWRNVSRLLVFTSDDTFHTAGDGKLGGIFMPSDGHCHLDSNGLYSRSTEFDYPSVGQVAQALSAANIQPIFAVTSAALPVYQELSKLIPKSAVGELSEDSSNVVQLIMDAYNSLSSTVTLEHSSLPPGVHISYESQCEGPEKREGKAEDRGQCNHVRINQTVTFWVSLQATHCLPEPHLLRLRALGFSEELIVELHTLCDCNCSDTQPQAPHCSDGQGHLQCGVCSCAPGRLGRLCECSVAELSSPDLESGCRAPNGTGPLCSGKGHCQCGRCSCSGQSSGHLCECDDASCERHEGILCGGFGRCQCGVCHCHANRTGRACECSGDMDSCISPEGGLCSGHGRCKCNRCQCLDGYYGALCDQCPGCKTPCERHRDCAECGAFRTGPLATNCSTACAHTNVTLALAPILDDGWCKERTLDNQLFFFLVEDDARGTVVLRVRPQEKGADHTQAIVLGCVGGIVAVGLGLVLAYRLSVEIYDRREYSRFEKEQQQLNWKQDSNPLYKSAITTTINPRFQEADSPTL
Experiment: α4β7 Integrin Cell Capture Assay
Conditions: capture of α4β7 integrin expressing RPMI8866 cells on recombinant MadCAM-1 extracellular domain-coated plate; 0.5 mM MnCl2
pEC50: −log10 of the molar value.
outcome measure: pEC50

molecule: O=C(N[C@@H](Cc1ccc(-c2cc(F)c(F)cc2OC2CC2)c2c1CCCO2)C(=O)O)c1c(F)cccc1F [Example 68]
measured number: 7.25

molecule: O=C(N[C@@H](Cc1ccc(-c2c(Cl)cc(F)cc2Cl)c2c1OCCCO2)C(=O)O)c1c(Cl)cccc1Cl [Example 97]
measured number: 7.21

molecule: CC[C@@H](Nc1cc(F)c(C(=O)N[C@@H](Cc2ccc(-c3cc4ccccc4n(C)c3=O)c3c2COC3)C(=O)O)c(F)c1)C(F)(F)F [Example 21]
measured number: 8.22

molecule: O=C(N[C@@H](Cc1ccc(-c2c(Cl)cc(F)cc2Cl)c2c1CCC2)C(=O)O)c1c(F)cccc1F [Example 104]
measured number: 7.05

molecule: O=C(N[C@@H](Cc1ccc(-c2c(Cl)cc(F)cc2Cl)c2c1C1CC1CO2)C(=O)O)c1c(F)cccc1F (stereo partly shown) [Example 77]
measured number: 7.15

molecule: CC[C@@H](Nc1cc(F)c(C(=O)N[C@@H](Cc2ccc(-c3c(C)n(C)c(=O)n(C)c3=O)c3c2CCCO3)C(=O)O)c(F)c1)C(F)(F)F (single isomer, unassigned) [Example 55]
measured number: 9.82

molecule: O=C(N[C@@H](Cc1ccc(-c2ncccc2C(F)(F)F)c2c1CCCO2)C(=O)O)c1c(F)cc(N[C@H](c2ccccc2)C(F)(F)F)cc1F [Example 86]
measured number: 8.48

molecule: Cc1cc(N2CCOC[C@@H]2C(F)(F)F)cc(F)c1C(=O)N[C@@H](Cc1ccc(-c2cnc(C)n(C)c2=O)c2c1OCCO2)C(=O)O [Example 178]
measured number: 9.46

molecule: Cc1cc(N2CCOC[C@@H]2C(F)(F)F)cc(F)c1C(=O)N[C@@H](Cc1ccc(-c2cc3cnccc3n(C)c2=O)c2c1COC2)C(=O)O [Example 189]
measured number: 9.62

molecule: COc1cccc(OC)c1-c1ccc(CC(NC(=O)c2c(F)cc(NS(=O)(=O)c3ccc(-n4cncn4)cc3)cc2F)C(=O)O)c2c1CN(C)CC2 (stereo not shown) [Example 106]
measured number: 9.23

molecule: Cc1c(-c2ccc(C[C@H](NC(=O)c3c(Cl)cccc3Cl)C(=O)O)c3c2OCCC3)c(=O)n(C)c2ccccc12 [Example 60]
measured number: 8.39

molecule: CC[C@@H](Nc1cc(F)c(C(=O)N[C@@H](Cc2ccc(-c3c(C(F)(F)F)cc(C)n(C)c3=O)c3c2CCCO3)C(=O)O)c(F)c1)C(F)(F)F (single isomer, unassigned) [Example 44]
measured number: 9.54

molecule: COc1cccc(OC)c1-c1ccc(CC(NC(=O)c2c(F)cc(NS(=O)(=O)c3ccc(-n4cncn4)cc3)cc2F)C(=O)O)c2c1CN(C(C)=O)CC2 (stereo not shown) [Example 107]
measured number: 9.09
